src = patent US4438036A

Each item that follows carries a reported MIC.
system: Escherichia coli 0111

Answered cases to consult:
CC(=O)NCCSC1=C(C(=O)O)N2C(=O)[C@H]([C@@H](C)N)[C@H]2C1 [Example 8]	16 µg/mL
CC(=O)N/C=C/SC1=C(C(=O)O)N2C(=O)[C@H]([C@@H](C)N)[C@H]2C1 [Example 2]	0.5 µg/mL
CC(=O)N/C=C/SC1=C(C(=O)[O-])N2C(=O)[C@H]([C@@H](C)O)[C@H]2C1.[Na+] [Example 5]	≤ 0.5 µg/mL

From here, focus on the item given below.
Bench note, Escherichia coli 0111: CC(=O)N/C=C/SC1=C(C(=O)[O-])N2C(=O)[C@H]([C@@H](C)OC=O)[C@H]2C1.[Na+] [Example 6] , MIC reads 1.6 µg/mL

* * *

# collection of MIC values tested on Shigella sonnei MB 11967
Give the value in µg/mL but do not write µg/mL after it.

A selection of reference data follows.
CC(=O)N/C=C/SC1=C(C(=O)[O-])N2C(=O)[C@H]([C@@H](C)OC=O)[C@H]2C1.[Na+]	1.6
CC(=O)NCCSC1=C(C(=O)O)N2C(=O)[C@H]([C@@H](C)N)[C@H]2C1	8

Alright, here's another molecule for you.
Item "CC(=O)N/C=C/SC1=C(C(=O)O)N2C(=O)[C@H]([C@@H](C)N)[C@H]2C1" was tested on Shigella sonnei MB 11967; the reported MIC is 1
